TESTED_ON: UniProtKB P08908
Sequence (P08908 whole entry): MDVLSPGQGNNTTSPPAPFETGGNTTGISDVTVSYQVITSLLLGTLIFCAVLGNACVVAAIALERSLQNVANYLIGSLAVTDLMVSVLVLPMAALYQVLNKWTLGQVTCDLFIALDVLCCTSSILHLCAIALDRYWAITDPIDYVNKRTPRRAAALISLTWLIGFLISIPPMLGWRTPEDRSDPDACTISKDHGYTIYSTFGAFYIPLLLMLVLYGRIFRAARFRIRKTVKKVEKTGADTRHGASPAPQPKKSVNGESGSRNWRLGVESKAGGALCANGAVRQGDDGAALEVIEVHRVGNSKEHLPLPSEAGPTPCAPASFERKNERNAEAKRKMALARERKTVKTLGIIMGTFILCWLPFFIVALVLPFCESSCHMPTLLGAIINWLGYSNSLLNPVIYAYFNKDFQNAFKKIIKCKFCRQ
ASSAY_COMMENT: Test 1: agonistic activity for human 5-HT1A receptor (aequorin/Gα16 luminescence in CHO-K1 cell)
Type: cell-based
COND: CHO-K1; 100% = 10 μmol/L endogenous ligand
RECORDED_METRIC: Emax (%)

- COMPOUND: "O=C(NCCN1CCC(c2cccc(C(F)(F)F)n2)CC1)C1CCOCC1"
  TESTED_ON: "UniProtKB P08908"
  MEASURED_RESULT: 92
- COMPOUND: "CN(C)c1cccc(C2CCN(CCNC(=O)C3CCOCC3)CC2)n1"
  TESTED_ON: "UniProtKB P08908"
  MEASURED_RESULT: 50
- COMPOUND: "Cc1cccc(C2=CCN(CCNC(=O)C3CCCCO3)CC2)n1 (stereo not drawn)"
  TESTED_ON: "UniProtKB P08908"
  MEASURED_RESULT: 40
- COMPOUND: "O=C(NCCN1CCC(c2cccc(OC(F)(F)F)n2)CC1)C1CCOCC1"
  TESTED_ON: "UniProtKB P08908"
  MEASURED_RESULT: 69
- COMPOUND: "Cc1cccc(C2=CCN(CCNC(=O)C(C)(C)C)CC2)n1"
  TESTED_ON: "UniProtKB P08908"
  MEASURED_RESULT: 36
- COMPOUND: "CC(C)(C)C(=O)NCCN1CCC(c2cccc(C(F)(F)F)n2)CC1"
  TESTED_ON: "UniProtKB P08908"
  MEASURED_RESULT: 84
- COMPOUND: "O=C(NCCN1CCC(c2cccc(F)n2)CC1)C1CCOCC1"
  TESTED_ON: "UniProtKB P08908"
  MEASURED_RESULT: 51
- COMPOUND: "O=C(NCCN1CC=C(c2cccc(C(F)(F)F)n2)CC1)C1CCCOC1 (stereo not drawn)"
  TESTED_ON: "UniProtKB P08908"
  MEASURED_RESULT: 36
- COMPOUND: "COCC(C)(C)C(=O)NCCN1CC=C(c2cccc(C(F)(F)F)n2)CC1"
  TESTED_ON: "UniProtKB P08908"
  MEASURED_RESULT: 43
